Value source: paper PMC7413254

Listed substances paired with reported [3H]CQ transport (% PfCRTDd2 control), trans-stimulation, PfCRTDd2
TARGET SYSTEM: PfCRT^Dd2 (Plasmodium falciparum, UniProt Q9N623, A220S/I356T/K76T/M74I/N326S/N75E/Q271E/R371I)
Sequence (Q9N623 whole entry A220S/I356T/K76T/M74I/N326S/N75E/Q271E/R371I): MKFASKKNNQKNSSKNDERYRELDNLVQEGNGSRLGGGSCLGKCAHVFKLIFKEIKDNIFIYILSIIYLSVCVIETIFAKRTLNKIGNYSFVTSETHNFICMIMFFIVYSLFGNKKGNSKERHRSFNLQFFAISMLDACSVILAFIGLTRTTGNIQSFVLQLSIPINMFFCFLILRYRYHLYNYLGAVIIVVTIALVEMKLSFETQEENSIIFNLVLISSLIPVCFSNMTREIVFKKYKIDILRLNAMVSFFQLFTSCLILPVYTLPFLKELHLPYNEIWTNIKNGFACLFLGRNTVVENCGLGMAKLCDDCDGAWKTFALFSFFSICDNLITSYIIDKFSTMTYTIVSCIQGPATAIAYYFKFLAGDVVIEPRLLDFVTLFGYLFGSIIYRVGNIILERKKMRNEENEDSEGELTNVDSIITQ
TEST METHOD NOTES: cell-based
Type: cell-based
PARTICULARS: trans-stimulation; [test solute]i = 5 mM (injected); PfCRT-mediated component (background subtracted); mean ± SEM; SEM
Method: Unless specified otherwise, the transport assays were conducted over 1.5 h at 27.5 °C and the reaction buffer was ND96 (96 mM NaCl, 2 mM KCl, 1 mM MgCl2, 1.8 mM CaCl2, 10 mM MES and 10 mM Tris-base) at pH 5.5. The intracellular concentrations were calculated using previous estimates of the volume of stage V–VI oocytes (~400 nL[60]). […] The oocytes were injected with VF-6 suspended in 25 nL ND96 buffer adjusted to pH 5.0, 5.5, 6.0 or 7.0, which corresponded to the injection of 2.5–250 fmol of H^+. […]
OUTCOME MEASURE: [3H]CQ transport (% PfCRTDd2 control), trans-stimulation, PfCRTDd2

1. DMPNALS [DS-7, host-derived peptide upstream of PL-4] ... 97
2. VDEVGG [VG-6] ... 102
3. PHFDLS [PS-6] ... 96
4. LSFPTTK [LK-7] ... 98
5. AEALERMF [AF-8] ... 97
6. HAGEYG [HG-6] ... 101
7. HVDDMP [HP-6] ... 103
8. HVDDMPN [HN-7] ... 100
9. HVDPEN [HN-6] ... 100
10. HVDPENF [HF-7] ... 100
11. VDPVNFK [VK-7] ... 100
12. EFTPPVQ [EQ-7] ... 96
13. DPENFR [DR-6] ... 100
14. SHCLLVT [ST-7] ... 97
15. FSDGLA [FA-6] ... 102
16. VLSPAD [VD-6] ... 101
17. FPHFDLS [FS-7] ... 95
18. DLDDALDK [DK-8] ... 98

---

Listed compounds paired with reported activity at 5000 µM
TARGET SYSTEM: PfCRT^Ecu1110 (Plasmodium falciparum, UniProt Q9N623, A220S/I356L/K76T/N326D)
TEST METHOD NOTES: cell-based
Type: cell-based
PARTICULARS: […], read-out: Uptake of [3H]CQ (% PfCRTDd2 control), trans-stimulation, PfCRTEcu1110, total [3H]CQ transport; [test solute]i = 5 mM (intracellular); mean ± SEM; SEM
Procedure: Unless specified otherwise, the transport assays were conducted over 1.5 h at 27.5 °C and the reaction buffer was ND96 (96 mM NaCl, 2 mM KCl, 1 mM MgCl2, 1.8 mM CaCl2, 10 mM MES and 10 mM Tris-base) at pH 5.5. The intracellular concentrations were calculated using previous estimates of the volume of stage V–VI oocytes (~400 nL[60]). […] The oocytes were injected with VF-6 suspended in 25 nL ND96 buffer adjusted to pH 5.0, 5.5, 6.0 or 7.0, which corresponded to the injection of 2.5–250 fmol of H^+. […]
OUTCOME MEASURE: activity at 5000 µM (%)

1) N[C@@H](CCC(=O)O)C(=O)O ... 35
2) NC(=O)CC[C@H](N)C(=O)O ... 35
3) CC(C)[C@H](N)C(=O)O ... 35
4) CSCC[C@H](N)C(=O)O ... 35

---

TARGET SYSTEM: PfCRT^Dd2 (Plasmodium falciparum, UniProt Q9N623, A220S/I356T/K76T/M74I/N326S/N75E/Q271E/R371I)
TEST METHOD NOTES: [3H]CQ uptake into Xenopus oocytes, cis-inhibition by unlabelled solute
Assay type: cell-based
PARTICULARS: read-out: [3H]CQ transport (% PfCRTDd2 control), cis-inhibition, PfCRTDd2; SEM
OUTCOME MEASURE: inhibition at 2000 µM (%)

1) N[C@@H](CCC(=O)O)C(=O)O [L-glutamic acid] ... 94
2) N[C@@H](CS)C(=O)O [L-cysteine] ... 95
3) N[C@@H](Cc1c[nH]c2ccccc12)C(=O)O [L-tryptophan] ... 95
4) CC(C)C[C@H](N)C(=O)O [L-leucine] ... 98

---

TARGET SYSTEM: PfCRT^Dd2 (Plasmodium falciparum, UniProt Q9N623, A220S/I356T/K76T/M74I/N326S/N75E/Q271E/R371I)
TEST METHOD NOTES: [3H]CQ uptake into Xenopus oocytes, cis-inhibition by unlabelled solute
Type: cell-based
PARTICULARS: [test solute] = 1 mM; PfCRTDd2 oocytes; background [3H]CQ accumulation subtracted; normalised to oocyte type control
Bucketed by reported PfCRT-mediated [3H]CQ transport, cis-inhibition (% PfCRTDd2 control), buckets being low end = under 20 % PfCRTDd2 control, middle = from 20 % PfCRTDd2 control up to 30 % PfCRTDd2 control, high end = 30 % PfCRTDd2 control and over

1. HVDPEN [HN-6] ... low end
2. HVDDMP [HP-6] ... low end
3. SHCLLVT [ST-7] ... middle
4. DTSLKPIS [DS-8] ... middle
5. VDPVNFK [VK-7] ... low end
6. PHFDLS [PS-6] ... high end
7. KEFTPPVQA [KA-9] ... high end
8. DMPNALS [DS-7, host-derived peptide upstream of PL-4] ... high end
9. HVDPENF [HF-7] ... high end
10. HAGEYG [HG-6] ... middle

---

Listed compounds paired with reported activity at 45000 µM
TARGET SYSTEM: PfCRT^Ecu1110 (Plasmodium falciparum, UniProt Q9N623, A220S/I356L/K76T/N326D)
TEST METHOD NOTES: cell-based
Type: cell-based
PARTICULARS: […], pH 5.5, read-out: Uptake of [3H]CQ (% PfCRTEcu1110 control), trans-stimulation, PfCRTEcu1110 oocytes; [test solute]i = 45 mM (30 mM for some solutes due to solubility); total [3H]CQ transport, normalised to the oocyte type control
OUTCOME MEASURE: activity at 45000 µM (%)

1) N[C@@H](Cc1ccccc1)C(=O)O ... 101
2) N[C@@H](CO)C(=O)O ... 98
3) NCCCC[C@H](N)C(=O)O ... 99
4) CC(C)[C@H](N)C(=O)O ... 100
5) CSCC[C@H](N)C(=O)O ... 100
6) N[C@@H](Cc1c[nH]cn1)C(=O)O ... 99
7) C[C@@H](O)[C@H](N)C(=O)O ... 99
8) C[C@H](N)C(=O)O ... 101
9) N[C@@H](CCC(=O)O)C(=O)O ... 100
10) CC(C)C[C@H](N)C(=O)O ... 100
11) N[C@@H](Cc1c[nH]c2ccccc12)C(=O)O ... 99
12) NC(=O)CC[C@H](N)C(=O)O ... 99

---

TARGET SYSTEM: PfCRT^Ecu1110 (Plasmodium falciparum, UniProt Q9N623, A220S/I356L/K76T/N326D)
TEST METHOD NOTES: [3H]CQ uptake into Xenopus oocytes, cis-inhibition by unlabelled solute
Type: cell-based
PARTICULARS: cis-inhibition; [test solute] = 2 mM; PfCRT-mediated component (background subtracted), sheet title says normalised to PfCRTDd2 control; mean ± SEM; SEM
Label rule, in plain words: [3H]CQ transport (% PfCRTEcu1110 control), cis-inhibition, PfCRTEcu1110 of 9 % PfCRTEcu1110 control and up is Condition met, under 9 % PfCRTEcu1110 control is Condition not met.

1) PHFDLS [PS-6] ... Condition not met
2) AEALERMF [AF-8] ... Condition met
3) VDEVGG [VG-6] ... Condition met
4) SHCLLVT [ST-7] ... Condition not met
5) VLSPAD [VD-6] ... Condition met
6) HVDPEN [HN-6] ... Condition met
7) HVDDMPN [HN-7] ... Condition not met
8) VDPVNFK [VK-7] ... Condition not met
9) HAGEYG [HG-6] ... Condition not met
10) HVDPENF [HF-7] ... Condition not met
11) FPHFDLS [FS-7] ... Condition not met
12) FSDGLA [FA-6] ... Condition met
13) HVDDMP [HP-6] ... Condition not met
14) EFTPPVQ [EQ-7] ... Condition not met
15) LSFPTTK [LK-7] ... Condition not met
